# Assay notes: Accelerated experiment (stability at 40 °C, 75% RH)
# Type: physicochemical
# Setup conditions: 0 h, 0d
Structures can show the parent of a compound that is named as a salt.
Result type: Total impurities (%)
Number in %, nothing else.

Study these solved cases before continuing.
1. COc1ccc(Cl)cc1-c1cc(C)ncc1C(=O)Nc1nc2ncc(-c3ccc(C#N)cc3)nc2s1 [Crystal form E]
0.52
2. COc1ccc(Cl)cc1-c1cc(C)ncc1C(=O)Nc1nc2ncc(-c3ccc(C#N)cc3)nc2s1 [Crystal form B]
1.11
3. COc1ccc(Cl)cc1-c1cc(C)ncc1C(=O)Nc1nc2ncc(-c3ccc(C#N)cc3)nc2s1 [Crystal form A]
0.79
4. COc1ccc(Cl)cc1-c1cc(C)ncc1C(=O)Nc1nc2ncc(-c3ccc(C#N)cc3)nc2s1 [Crystal form C]
0.8

Entry COc1ccc(Cl)cc1-c1cc(C)ncc1C(=O)Nc1nc2ncc(-c3ccc(C#N)cc3)nc2s1 [Amorphous form of sodium salt of compound of formula I] needs its Total impurities filled in; supply it.
0.52
